# STUDY SYSTEM: fibroblast activation protein (FAP; rhFAP, SLIN-tagged hFAP) (Homo sapiens, UniProt Q12884)
# Sequence (Q12884 35-760): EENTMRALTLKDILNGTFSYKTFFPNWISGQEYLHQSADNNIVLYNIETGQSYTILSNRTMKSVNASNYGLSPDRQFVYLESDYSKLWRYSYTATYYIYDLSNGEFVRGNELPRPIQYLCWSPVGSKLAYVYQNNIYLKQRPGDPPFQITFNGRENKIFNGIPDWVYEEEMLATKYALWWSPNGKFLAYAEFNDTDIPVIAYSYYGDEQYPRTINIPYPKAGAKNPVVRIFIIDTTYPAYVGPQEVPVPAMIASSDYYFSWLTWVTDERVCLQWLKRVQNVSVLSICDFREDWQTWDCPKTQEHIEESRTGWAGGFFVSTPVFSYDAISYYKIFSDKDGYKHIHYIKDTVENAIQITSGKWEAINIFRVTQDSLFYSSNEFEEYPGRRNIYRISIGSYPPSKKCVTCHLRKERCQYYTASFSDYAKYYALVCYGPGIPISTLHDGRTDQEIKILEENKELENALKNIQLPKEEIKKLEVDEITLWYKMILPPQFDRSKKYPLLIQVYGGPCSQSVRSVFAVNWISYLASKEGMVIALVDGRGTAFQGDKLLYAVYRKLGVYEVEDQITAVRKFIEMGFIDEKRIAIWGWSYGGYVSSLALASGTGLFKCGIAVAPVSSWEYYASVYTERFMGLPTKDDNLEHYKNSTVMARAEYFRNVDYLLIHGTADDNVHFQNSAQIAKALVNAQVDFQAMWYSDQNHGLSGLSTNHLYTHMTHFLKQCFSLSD
# EXPERIMENT DESCRIPTION: fluorogenic AMC substrate activity assay
READOUT LABEL: IC50

>  <COMPOUND>
O=C1OC2(c3ccc(O)cc3Oc3cc(O)ccc32)c2ccccc21 [Fluorescein (sodium)]

>  <READOUT LABEL>
IC50

>  <OBS VALUE>
> 20 µM

$$$$

====

# STUDY SYSTEM: fibroblast activation protein (FAP; rhFAP, SLIN-tagged hFAP) (Homo sapiens, UniProt Q12884)
# EXPERIMENT DESCRIPTION: biochemical
Structures can show the parent of a compound that is named as a salt. Bridge positions count the residues as written; N and C are the ends. Square brackets hold non-standard residues; d marks the D form. Peptide text beside a SMILES is read from it. hArg = N=C(N)NCCCC[C@H](N)C(=O)O; Mpa = O=C(O)CCS
READOUT LABEL: Ki (µM)

>  <MOLECULE>
CC(=O)O[C@H]1C[C@@H]2CC[C@@H]3[C@H](CC[C@@]4(C)[C@H]3C[C@H]([N+]3(C)CCCCC3)[C@@H]4OC(C)=O)[C@@]2(C)C[C@@H]1N1CCCCC1 [Vecuronium (bromide)]

>  <READOUT LABEL>
Ki

>  <MEASUREMENT UNITS>
µM

>  <OBS VALUE>
25.8

$$$$
>  <MOLECULE>
COC(=O)c1ccc2c(c1)NC(=O)/C2=C(\Nc1ccc(N(C)C(=O)CN2CCN(C)CC2)cc1)c1ccccc1 [Nintedanib esylate]

>  <READOUT LABEL>
Ki

>  <MEASUREMENT UNITS>
µM

>  <OBS VALUE>
27.7

$$$$
>  <MOLECULE>
CCOc1ccc2nc3cc(N)ccc3c(N)c2c1 [Ethacridine (lactate monohydrate)]

>  <READOUT LABEL>
Ki

>  <MEASUREMENT UNITS>
µM

>  <OBS VALUE>
14.4

$$$$
>  <MOLECULE>
CNCc1ccc(-c2[nH]c3cc(F)cc4c3c2CCNC4=O)cc1

>  <READOUT LABEL>
Ki

>  <MEASUREMENT UNITS>
µM

>  <OBS VALUE>
44.4

$$$$
>  <MOLECULE>
CCOC(=O)OC(C)OC(=O)[C@@H]1N2C(=O)[C@@H](NC(=O)[C@H](N)c3ccccc3)[C@H]2SC1(C)C (stereo partly drawn) [Bacampicillin (hydrochloride)]

>  <READOUT LABEL>
Ki

>  <MEASUREMENT UNITS>
µM

>  <OBS VALUE>
12.7

$$$$
>  <MOLECULE>
CCOC(=O)[C@@](C)(N)Cc1ccc(O)c(O)c1 [Methyldopate]

>  <READOUT LABEL>
Ki

>  <MEASUREMENT UNITS>
µM

>  <OBS VALUE>
29.6

$$$$
>  <MOLECULE>
N=C(N)NCCCC[C@@H]1NC(=O)CCSSC[C@@H](C(N)=O)NC(=O)[C@@H]2CCCN2C(=O)[C@H](Cc2c[nH]c3ccccc23)NC(=O)[C@H](CC(=O)O)NC(=O)CNC1=O [Eptifibatide] ([Mpa][hArg]GDWPC-NH2; disulfide 1-7)

>  <READOUT LABEL>
Ki

>  <MEASUREMENT UNITS>
µM

>  <OBS VALUE>
27.8

$$$$
>  <MOLECULE>
Cc1ccc(NC(=O)C2(c3ccc4c(c3)OC(F)(F)O4)CC2)nc1-c1cccc(C(=O)O)c1

>  <READOUT LABEL>
Ki

>  <MEASUREMENT UNITS>
µM

>  <OBS VALUE>
10.1

$$$$
>  <MOLECULE>
CC(C)=CCOc1ccc(/C=C/C(=O)c2ccc(OCC=C(C)C)cc2OCC(=O)O)cc1

>  <READOUT LABEL>
Ki

>  <MEASUREMENT UNITS>
µM

>  <OBS VALUE>
16

$$$$
